- experiment: inhibitors of cytokine-induced beta cell apoptosis, primary screen, luminescence (AID 435005);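 further: 0% = cytokine-treated negative control wells and 100% = positive control rescue; higher means more ATP so stronger rescue from cytokine killing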
- measurementSetup: INS-1E cytokine-induced death, ATP luminescence, 48 h; percent of positive-control rescue, neutral wells zero; concentration not given here
Out of some 300,000 compounds screened, about 2,400 (0.8%) were called active.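 How the source made its calls: active means Every replicate reaches about 75%, or at least half do and their mean reaches it too (limit read from the data); inconclusive means At least half of replicates reach the limit but their mean does not; inactive means Under half of replicates reach the limit.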 This excerpt belongs to a sample that is enriched for actives.
Response enum: y = active, n = inactive

# input // param item: "O=C(C[C@H]1C/C=C\C[C@@H](NC(=O)OCC2c3ccccc3-c3ccccc32)C(=O)O[C@@H](c2ccccc2)CNC1=O)N[C@H](CO)Cc1ccccc1" ; yields the recorded call
# output n

# input Could you please tell me the result logged for CCOc1ccc(S(=O)(=O)N2CCCCC2)cc1NC(=O)CN1CCCC1c1cccs1 (stereo not given) in this assay?
# output y

# input Please indicate how the test categorized "Cc1ccc(-n2[nH]c(C)c(/C=N/NC(=O)c3cccc([N+](=O)[O-])c3)c2=O)cc1C" .
# output y

# input Dear colleague, could you share the recorded outcome for "Cc1ccc(OCc2cc(C(=O)N(C)CCc3ccccc3)no2)cc1C" when you have a moment?
# output n

# input How did this test come out for "Cc1ccc(C(=O)Nc2ccn(C)n2)cc1" ?
# output n

# input Each compound tested received a call. Report the one for "CCOc1cc(N2CCOCC2)c(OCC)cc1NC(=O)COc1cccc(Cl)c1" .
# output n

# input Returns: the outcome recorded for "COc1ccc(S(=O)(=O)N2CCCCC2)cc1NC(=O)COc1ccccc1" in this assay.
# output n

# input Which outcome was assigned to "Clc1ccc(N/N=C/c2cccs2)nn1" in this test?
# output n

# input How did this test come out for Cc1cc(NC(=O)CN2C(=O)NC(CC(C)C)C2=O)no1 (stereo not given) ?
# output n

Next up:
# input State the result this test recorded for "CN(Cc1cccnc1)C(=O)c1cc(COc2ccc3ncccc3c2)on1" .
# output y

* * *

- experiment: inhibitors of cytokine-induced beta cell apoptosis, primary screen, luminescence (AID 435005)
- measurementSetup: INS-1E cytokine-induced death, ATP luminescence, 48 h; hits give high values; percent of positive-control rescue, neutral wells zero; concentration not given here
Hit rate of the full screen: of about 300,000 compounds, about 2,400 (0.8%) were called active. The list comes from a sample in which actives are over-represented; it also holds close analogues and randomly drawn compounds.
measuredQuantity: protection from apoptosis (%)
Note: unit % is implicit; provide only the numeric part.

# input What does the data say about its protection from apoptosis? Entry: "S=c1[nH]nc(-c2cc(-c3ccccc3)n[nH]2)n1/N=C/c1c2ccccc2cc2ccccc12"
# output 10.1

# input Endpoint output: protection from apoptosis of "Cc1nn(-c2ccccc2)c(C)c1NC(=O)COc1ccc(Cl)cc1Cl" . Value?
# output 0.164

# input Suppose we examine the molecule COc1ccc2nc3n(c(=O)c2c1)-c1cc(C)ccc1C(=O)NC3Cc1ccc(O)cc1 (stereo not given) ; what protection from apoptosis value has been reported?
# output 9.76

# input Sample "CCc1sc(C(=O)N2CCN(CC(=O)Nc3cccc(F)c3)CC2)cc1C" — what was its protection from apoptosis?
# output -5.03

# input Quick one: protection from apoptosis for "O=C(CN1C(=O)NC2(CCCC2)C1=O)Nc1cc(C(F)(F)F)ccc1N1CCOCC1" ?
# output 1.66

# input State the recorded protection from apoptosis for this entry: "Cc1cc(-c2n[nH]c(=S)n2/N=C/C(Br)=C/c2ccccc2)n[nH]1"
# output 84.8

# input What protection from apoptosis value was documented for this molecule, "Oc1ccccc1/C=N/n1c(-c2cccs2)n[nH]c1=S" ?
# output -8.28

# input For the molecule "O=C(NNS(=O)(=O)c1c(F)cc(F)c(Cl)c1F)C12CC3CC(CC(C3)C1)C2" , what protection from apoptosis is on record?
# output -12

# input // lookup protection from apoptosis for C=CC(COCc1ccccc1)N(CC(=O)OC)S(=O)(=O)c1cc(Br)ccc1OC (stereo not given)
# output 1.07

Lab note: next molecule to report on.
# input Form field: reported protection from apoptosis of "O=C(Nc1ccon1)c1nc[nH]c1C(=O)NCc1ccccc1"
# output 2.59

* * *

- experiment: inhibitors of cytokine-induced beta cell apoptosis, primary screen, luminescence (AID 435005)
- measurementSetup: INS-1E cytokine-induced death, ATP luminescence, 48 h; hits give high values; percent of positive-control rescue, neutral wells zero; concentration not given here
In all, about 300,000 compounds went through this assay and about 2,400 (0.8%) were called active. The full list was thinned out, with actives kept by preference.
Consider the following compounds and their measured protection from apoptosis readings.
Report the value in % with no unit label.

# input Quick check: protection from apoptosis of "O=C(CCCOc1ccccc1)NNC(=O)c1ccc(Cl)cc1" ?
# output -1.22

# input I would be grateful if you could share the reported protection from apoptosis for CSc1ncccc1C(=O)NCC(c1ccco1)N1CCCCC1 (stereo not given) .
# output -20.2

# input Request the reported protection from apoptosis associated with "CCOC(=O)c1c(-c2ccc(C)cc2)csc1/N=C(\C)C1=C(O)c2ccccc2C1=O"
# output -5.12

# input // query protection from apoptosis value for entry "O=C(CN1C(=O)NC2(CCCCCC2)C1=O)NCc1ccc(F)cc1"
# output -3.82

# input For "c1ccc(NCc2cccc3ccccc23)nc1" , what is its reported protection from apoptosis?
# output -6.69

* * *

- experiment: inhibitors of cytokine-induced beta cell apoptosis, primary screen, luminescence (AID 435005);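 further: 0% = cytokine-treated negative control wells and 100% = positive control rescue; higher means more ATP so stronger rescue from cytokine killing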
- measurementSetup: INS-1E cytokine-induced death, ATP luminescence, 48 h; hits give high values; percent of positive-control rescue, neutral wells zero; concentration not given here
Among all 300,000 compounds or so, about 2,400 (0.8%) were called active. For the sample, actives were picked, then their nearest neighbours and some compounds at random.
measuredQuantity: protection from apoptosis (%)
Supply the numeric figure in %, leaving out any unit text.

# input protection from apoptosis lookup needed for "Cc1occc(=O)c1OCc1ccc(F)cc1" , thanks.
# output -6.87

# input Looking for the measured protection from apoptosis of "Cc1cc(C)cc(OCC(=O)Nc2ccc(N3CCOCC3)cc2N2CCOCC2)c1" , can you help?
# output 1.95

# input Look up protection from apoptosis: O=C(CC1SCCNC1=O)Nc1ccc(Cl)c(Cl)c1 (configuration not stated)
# output 0.331

# input protection from apoptosis lookup needed for "Cc1c(C(=O)Nc2cccc(S(=O)(=O)N3CCOCC3)c2)oc2ccccc12" , thanks.
# output -9.31

# input Param item = "O=C(/C=C/c1ccc([N+](=O)[O-])o1)NNC(=O)c1ccc(F)cc1" ; retrieve measured protection from apoptosis.
# output 93.8

# input For the molecule shown here, "CN(Cc1ccc(F)cc1)C(=O)CN1C(=O)c2ccccc2S1(=O)=O" , give the reported protection from apoptosis.
# output -4.27

# input Fill in: protection from apoptosis of "Cc1cccc(NC(=S)Nc2ccc3cn[nH]c3c2)c1" is ___
# output 124

# input // lookup protection from apoptosis for "NC(=O)c1c(Nc2nc3c(F)cccc3s2)sc2c1CCCC2"
# output -4.14

Continuing:
# input Looking for the measured protection from apoptosis of "O=C(N/N=C/c1ccc([N+](=O)[O-])o1)c1cn(-c2ccccc2)nc1-c1ccc(F)cc1" , can you help?
# output -1.79

# input Which protection from apoptosis value belongs to C[C@]12CC[C@H](O)CC1=CCC1C2CC[C@@]2(C)C1CC[C@@H]2NC(=O)CCC(=O)O (some centres not stated) ?
# output 0.606

* * *

- experiment: inhibitors of cytokine-induced beta cell apoptosis, primary screen, luminescence (AID 435005);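 further: 0% = cytokine-treated negative control wells and 100% = positive control rescue; higher means more ATP so stronger rescue from cytokine killing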
- measurementSetup: INS-1E cytokine-induced death, ATP luminescence, 48 h; percent of positive-control rescue, neutral wells zero; concentration not given here
Among all 300,000 compounds or so, about 2,400 (0.8%) were called active.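 Rule for the calls: active = Every replicate reaches about 75%, or at least half do and their mean reaches it too (limit read from the data); inconclusive = At least half of replicates reach the limit but their mean does not; inactive = Under half of replicates reach the limit.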 This is one part of a sample in which actives are shown more often than they occur.
Choose one outcome from this list and give only that: active, inactive

Example entries and their recorded answers appear below.
# input Can you look up the reported call for "CC[C@@H]1CCCCc2ccccc2[C@@H](C(=O)C[C@H](O)CC(C)=O)OC1=O" for me?
# output inactive

# input For CCOC(=O)c1c(NC(=O)c2ccc(S(=O)(=O)N(C)CC3CCCO3)cc2)sc2c1CC(C)(C)NC2(C)C (stereo not given) , which call appears in the assay record?
# output inactive

# input Hello, I am checking results. What call was entered for "Cc1occc1C(=O)N/N=C/c1ccc(-c2cccc([N+](=O)[O-])c2)o1" ?
# output inactive

# input Dear all, I need the recorded test outcome for "COC(=O)c1c(NC(=O)COc2ccc(Cl)cc2Cl)sc2c1CC(C)(C)NC2(C)C" , thank you.
# output active

Here's the next entry for you.
# input Hey, what did the test say about "Cc1ccc(C)c(NS(=O)(=O)c2ccc(OCC(=O)NCc3cccnc3)cc2)c1" ?
# output active

* * *

- experiment: inhibitors of cytokine-induced beta cell apoptosis, primary screen, luminescence (AID 435005);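 further: 0% = cytokine-treated negative control wells and 100% = positive control rescue; higher means more ATP so stronger rescue from cytokine killing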
- measurementSetup: INS-1E cytokine-induced death, ATP luminescence, 48 h; percent of positive-control rescue, neutral wells zero; concentration not given here
The whole screen tested about 300,000 compounds, of which about 2,400 (0.8%) were called active.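 The calls were made as follows: active = Every replicate reaches about 75%, or at least half do and their mean reaches it too (limit read from the data); inconclusive = At least half of replicates reach the limit but their mean does not; inactive = Under half of replicates reach the limit.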 Many of the other results were omitted from the sample, so actives are more common in it than they were.
Outcome (select one): yes (active), no (inactive)

Reference set (7 entries):
# input What call does the record list for "O=C(Nc1ccccc1Cl)Nc1cccc2cccnc12" ?
# output no

# input Hi, do you know how O=C(Nc1ccccc1Cl)/C(Cl)=C(\Cl)S(=O)c1ccccc1 (stereo not drawn) came out in this test?
# output yes

# input Dear colleague, could you share the recorded outcome for CC1O[C@@H](OC2C(O)C(C)O[C@H](OC(=O)[C@]34CCC(C)(C)C[C@H]3C3=CCC5[C@@]6(C)CC(O)C(O[C@@H]7OC(CO)C(O)[C@@H](O)[C@@H]7O)[C@@](C)(C(=O)O)C6CC[C@@]5(C)[C@]3(CO)CC4)C2O[C@H]2OC(C)[C@@H](O[C@@H]3OCC(O[C@@H]4OC(CO)C(O)[C@H](O)C4O)[C@@H](O)[C@@H]3O)[C@H](O)C2O)C(O)C(O)C1O (stereo partly drawn) when you have a moment?
# output no

# input What is the recorded call for this compound in the test? "O=C(Cc1ccc2c(c1)CCCC2)Nc1ccccc1Cl"
# output no

# input Just curious, what result did "O=C(CN1CCc2ccccc2C1)Nc1cccc(S(=O)(=O)N2CCOCC2)c1" get here?
# output no

# input Look up the recorded call for "COc1ccccc1-c1oc2ccccc2c1C#CCCCCO" in this test.
# output no

# input What classification did "CCN1/C(=C\c2ccc3ccccc3[n+]2CC)Sc2cc(C)ccc21" end up with in this test?
# output yes

Attention now shifts to the item below.
# input I'd appreciate the recorded outcome for CCOC(=O)C1=C(CN2CCc3ccccc32)NC(=O)NC1c1ccc(Cl)cc1 (stereo not drawn) from this test.
# output no

Data provenance: PubChem BioAssay AID435005
